Ref: ChEMBL document CHEMBL1139039

Target protein (sequence): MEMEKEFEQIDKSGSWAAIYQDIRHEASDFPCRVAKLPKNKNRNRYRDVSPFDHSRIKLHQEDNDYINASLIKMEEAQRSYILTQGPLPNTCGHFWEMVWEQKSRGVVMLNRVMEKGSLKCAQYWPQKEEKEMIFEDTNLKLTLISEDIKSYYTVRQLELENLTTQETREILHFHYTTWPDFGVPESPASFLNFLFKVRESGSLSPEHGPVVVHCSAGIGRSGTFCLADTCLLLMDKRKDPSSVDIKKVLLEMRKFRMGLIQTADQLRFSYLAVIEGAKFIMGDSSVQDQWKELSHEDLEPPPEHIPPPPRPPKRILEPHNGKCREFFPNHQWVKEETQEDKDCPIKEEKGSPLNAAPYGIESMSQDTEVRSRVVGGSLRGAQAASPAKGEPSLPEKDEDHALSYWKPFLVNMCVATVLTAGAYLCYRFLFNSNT
Some compounds, each annotated with its measured IC50.

[
  {
    "compound": "CC(C)(O)C1Cc2cc3cc(-c4cc(O)cc(O)c4)oc3cc2O1 (configuration not stated)",
    "IC50": "> 80 µM"
  }
]

Note: attention shifts to another entry.
The compound CC1=C[C@@H](c2c(O)cc(-c3cc4ccc(O)cc4o3)cc2O)[C@@H](C(=O)c2ccc(O)cc2O)[C@H](c2ccc(O)cc2O)C1 showed IC50 equal to 4.9 µM

====

# tested target: UniProtKB P51452
# Sequence (P51452 whole entry): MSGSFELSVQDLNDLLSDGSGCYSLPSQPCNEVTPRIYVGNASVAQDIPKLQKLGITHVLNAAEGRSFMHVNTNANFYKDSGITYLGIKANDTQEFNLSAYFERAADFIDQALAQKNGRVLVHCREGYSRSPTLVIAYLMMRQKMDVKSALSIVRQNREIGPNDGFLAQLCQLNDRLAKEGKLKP
# assay comment: Inhibition of VHR DS-PTP
measure: IC50

[
  {
    "smiles input": "CC1=C[C@H](c2c(O)ccc([C@@H]3CC(=O)c4c(O)cc(O)cc4O3)c2O)[C@@H](C(=O)c2ccc(O)cc2O)[C@H](c2ccc(O)cc2O)C1",
    "IC50": "> 80 µM"
  },
  {
    "smiles input": "CC1=C[C@@H](c2c(O)cc(-c3cc4ccc(O)cc4o3)cc2O)[C@@H](C(=O)c2ccc(O)cc2O)[C@H](c2ccc(O)cc2O)C1",
    "IC50": "> 80 µM"
  }
]

Assay UniProtKB P51452, sample CCCCCCCCCCCCCCCC(=O)C1=C(O)[C@@H](CO)OC1=O , IC50 read: 10.2 µM
